Each record here notes measured koff.
Biological target: T1, biotinylated recombinant human Arginase 2 (human, UniProt P78540 23-354, biotin (biotinylated; site not stated))
T1 chain: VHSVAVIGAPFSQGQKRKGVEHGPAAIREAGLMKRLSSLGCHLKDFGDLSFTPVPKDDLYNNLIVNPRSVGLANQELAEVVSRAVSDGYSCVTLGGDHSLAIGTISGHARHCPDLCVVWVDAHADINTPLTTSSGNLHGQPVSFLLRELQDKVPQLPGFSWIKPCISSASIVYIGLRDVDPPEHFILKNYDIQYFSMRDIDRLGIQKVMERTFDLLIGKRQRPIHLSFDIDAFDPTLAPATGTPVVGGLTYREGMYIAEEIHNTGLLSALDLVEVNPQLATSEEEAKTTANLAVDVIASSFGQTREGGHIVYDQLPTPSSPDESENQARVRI
Experiment: BLI
Please reply with the bare figure in s⁻¹ and do not write the unit itself.

{"binder": "Fab C0021128 (Fab, V domains shown) VH: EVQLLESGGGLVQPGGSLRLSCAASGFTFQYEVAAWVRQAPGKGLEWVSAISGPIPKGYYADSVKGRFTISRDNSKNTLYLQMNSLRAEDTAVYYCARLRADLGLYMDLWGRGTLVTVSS VL: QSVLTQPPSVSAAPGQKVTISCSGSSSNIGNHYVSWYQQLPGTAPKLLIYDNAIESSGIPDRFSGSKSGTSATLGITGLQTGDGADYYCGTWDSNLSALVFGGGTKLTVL", "value": 0.00067}
{"binder": "Fab C0021181 (Fab, V domains shown) VH: EVQLLESGGGLVRPGGSLRLSCAASEFTFRYDYHVWVRQAPGKGLEWVSAISGSGGSTYYADSVKSRFTISRDNSKNTLYLQMNSLRAEDTAVYYCARLRADLGLYMDLWGRGTLVTVSS VL: QSVLTQPPSVSAAPGQKVAVSCSGSSSNIGSHYVSWYQQLPGTAPKLLIYDNSERTSGIPDRFSGSKSGTSATLGITGLQTGDEADYYCGTWDELTSNLVFGGGTRLTVL", "value": "4.2e-05"}
{"binder": "Fab C0021139 (Fab, V domains shown) VH: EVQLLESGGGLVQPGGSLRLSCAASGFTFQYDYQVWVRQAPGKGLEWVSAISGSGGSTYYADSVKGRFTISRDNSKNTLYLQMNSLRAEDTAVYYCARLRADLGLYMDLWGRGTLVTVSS VL: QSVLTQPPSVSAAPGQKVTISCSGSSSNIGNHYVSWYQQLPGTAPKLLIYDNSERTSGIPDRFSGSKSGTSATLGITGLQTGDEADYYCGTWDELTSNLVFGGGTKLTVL", "value": 0.00087}

Could you now consider this next binder?
Value of koff reported for the binder Fab C0021158 (Fab, V domains shown) VH: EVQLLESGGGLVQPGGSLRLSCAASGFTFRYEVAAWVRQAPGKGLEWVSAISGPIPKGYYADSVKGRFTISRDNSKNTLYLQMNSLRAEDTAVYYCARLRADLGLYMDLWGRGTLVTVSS VL: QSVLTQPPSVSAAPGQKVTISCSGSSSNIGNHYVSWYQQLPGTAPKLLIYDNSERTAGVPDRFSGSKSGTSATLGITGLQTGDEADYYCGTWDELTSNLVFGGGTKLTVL is 4.5e-05
